Cited source for all entries: patent US12612407B2

# SYSTEM NAME: human TLR7 (Homo sapiens, UniProt Q9NYK1)
# Construct: host or cells: HEK293 (HEK-Blue hTLR7)
# Sequence (Q9NYK1 27-1049): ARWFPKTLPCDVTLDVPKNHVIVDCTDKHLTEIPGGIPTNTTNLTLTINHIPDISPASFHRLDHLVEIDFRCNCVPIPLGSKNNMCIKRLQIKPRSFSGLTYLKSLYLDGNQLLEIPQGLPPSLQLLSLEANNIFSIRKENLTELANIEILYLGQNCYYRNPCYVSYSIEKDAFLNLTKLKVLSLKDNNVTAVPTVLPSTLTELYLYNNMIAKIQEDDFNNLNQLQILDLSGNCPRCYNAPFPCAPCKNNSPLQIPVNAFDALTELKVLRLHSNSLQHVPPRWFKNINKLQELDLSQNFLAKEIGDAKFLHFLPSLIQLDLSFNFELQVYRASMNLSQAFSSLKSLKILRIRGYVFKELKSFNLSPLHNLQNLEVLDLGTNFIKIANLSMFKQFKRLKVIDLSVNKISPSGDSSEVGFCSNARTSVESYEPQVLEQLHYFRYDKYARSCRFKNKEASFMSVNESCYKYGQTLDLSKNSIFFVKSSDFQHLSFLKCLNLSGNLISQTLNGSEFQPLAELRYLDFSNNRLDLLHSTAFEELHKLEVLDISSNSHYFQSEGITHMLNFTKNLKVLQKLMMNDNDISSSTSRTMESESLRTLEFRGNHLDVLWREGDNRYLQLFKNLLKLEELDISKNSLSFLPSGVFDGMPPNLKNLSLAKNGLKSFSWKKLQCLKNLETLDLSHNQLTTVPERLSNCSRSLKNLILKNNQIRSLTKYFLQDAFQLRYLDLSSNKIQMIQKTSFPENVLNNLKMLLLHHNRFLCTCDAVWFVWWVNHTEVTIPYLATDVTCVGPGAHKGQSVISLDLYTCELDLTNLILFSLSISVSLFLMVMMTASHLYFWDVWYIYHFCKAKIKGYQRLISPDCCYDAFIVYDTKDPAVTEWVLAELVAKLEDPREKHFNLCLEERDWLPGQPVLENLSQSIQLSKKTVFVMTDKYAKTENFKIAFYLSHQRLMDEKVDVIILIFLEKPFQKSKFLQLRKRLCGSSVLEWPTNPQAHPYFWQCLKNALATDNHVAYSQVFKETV
# RUN DESCRIPTION: HEK293-Blue hTLR7 Reporter Assay (QUANTI-BLUE, SEAP readout)
# Assay type: cell-based
# ASSAY CONTEXT: HEK-Blue-hTLR7 cells, 24 hrs treatment, Table 1, B1-B232
MEASURED METRIC: pEC50
Note on units: pEC50 is unitless, being -log10 of a concentration expressed in mol/L.

Below, 2 compounds whose answers are already recorded.
> print(dat)
                               entry.smiles  measured.metric  observed.measurement
1  CCCCOc1nc(N)c2ncc(Cc3cnc(N4CCN(CCN(C)C)CC4)c(C)c3)n2n1            pEC50                  7.03
2  CCCCOc1nc(N)c2ncc(Cc3cnc(N4CCN(C(=O)CN(C)C)CC4)c(C)c3)n2n1            pEC50                  7.36

Okay, next one:
(Q) Suppose we examine the compound `CCCCOc1nc(N)c2ncc(Cc3cnc(N4CCN(C)CC4)c(Cl)c3)n2n1` ; what pEC50 value has been reported?
(A) 6.30

---

# SYSTEM NAME: human TLR7 (Homo sapiens, UniProt Q9NYK1)
# Construct: host or cells: HEK293 (HEK-Blue hTLR7)
# RUN DESCRIPTION: HEK293-Blue hTLR7 Reporter Assay (QUANTI-BLUE, SEAP readout)
# Format: cell-based
# ASSAY CONTEXT: HEK-Blue-hTLR7 cells, 24 hrs treatment, Table 1, B1-B232
MEASURED METRIC: EC50
Report as: number unit

> print(dat)
                               entry.smiles                               system.name  observed.measurement
1  CCCCOc1nc(N)c2ncc(Cc3cnc(N4CCN(C(=O)CCN(C)C)CC4)c(C)c3)n2n1  human TLR7 (Homo sapiens, UniProt Q9NYK1)                148 nM
2  CCC(CC)Nc1nc(N)c2ncc(Cc3cnc(N4CCN(C(=O)CN(C)C)CC4)c(C)c3)n2n1  human TLR7 (Homo sapiens, UniProt Q9NYK1)                7.7 nM
3  CCC[C@H](C)Nc1nc(N)c2ncc(Cc3cnc(N4CCN(C(=O)CNC)CC4)c(C)c3)n2n1  human TLR7 (Homo sapiens, UniProt Q9NYK1)                4.1 nM

Note: attention shifts to another entry.
(Q) // query EC50 value for entry `CCCCOc1nc(N)c2ncc(Cc3ccc(C4CCNCC4)c(C)c3)n2n1`
(A) 448 nM

---

Documented EC50 across a set of compounds
# SYSTEM NAME: human TLR7 (Homo sapiens)
# Construct: host or cells: HEK293 (HEK-Blue hTLR7)
# RUN DESCRIPTION: HEK293-Blue hTLR7 Reporter Assay (QUANTI-BLUE, SEAP readout)
# Format: cell-based
# ASSAY CONTEXT: HEK-Blue-hTLR7 cells, 24 hrs treatment, Table 1, B1-B232
# Experimental: HEK293-Blue hTLR7 Reporter Assay: HEK-Blue-hTLR7 cell line (Invivogen, Cat. No. hkb-htlr7) was designed so that the expression of the secreted embryonic alkaline phosphatase (SEAP) was induced by activating NF-κ and AP-1 via stimulating human TLR7 with TLR7 agonists. […] Then 20 μL of the supernatant from each well was incubated with 180 μL Quanti-blue substrate solution at 37° C. for 10-30 mins before the activity of the SEAP was determined at 620-655 nm using a spectrophotometer. […]
Give a bare numeral; the unit µM is implied.

Known EC50 results, listed for orientation:
> print(dat)
                                   compound                system.name  measured.metric  uom  observed.measurement
1  CC[C@@H](C)Oc1nc(N)c2ncc(Cc3cnc(N4CCNCC4)c(C)c3)n2n1 [Compound B152]  human TLR7 (Homo sapiens)             EC50   µM                 0.056
2  CCCC(CC)Oc1nc(N)c2ncc(Cc3cnc(N4CCC(N(C)C)CC4)c(C)c3)n2n1 (stereo not shown) [Compound B163]  human TLR7 (Homo sapiens)             EC50   µM                0.0025
3  CCCC(CC)Nc1nc(N)c2ncc(Cc3cnc(N4CCNCC4)c(C)c3)n2n1 (stereo not shown) [Compound B223]  human TLR7 (Homo sapiens)             EC50   µM                 0.006
4  CCCCOc1nc(N)c2ncc(Cc3cnc(N4CCC(CN5CCOCC5)CC4)c(C)c3)n2n1 [Compound B109]  human TLR7 (Homo sapiens)             EC50   µM                 0.161
5  CCC[C@@H](C)Nc1nc(N)c2ncc(Cc3cnc(N4CCC(CN(C)C)CC4)c(C)c3)n2n1 (single isomer, unassigned) [Compound B178]  human TLR7 (Homo sapiens)             EC50   µM                 0.017
6  CCC(C)Oc1nc(N)c2ncc(Cc3cnc(N4CCN(C(=O)CNC)CC4)c(C)c3)n2n1 (stereo not shown) [Compound B156]  human TLR7 (Homo sapiens)             EC50   µM                0.0097

Alright, here's another compound for you.
(Q) Report EC50 for CCC[C@@H](CCO)Nc1nc(N)c2ncc(Cc3cnc(N4CCC(CNC)CC4)c(C)c3)n2n1 [Compound B228] please.
(A) 0.037

---

# SYSTEM NAME: human TLR 8 protein (Homo sapiens, UniProt Q9NR97)
# Sequence (Q9NR97 27-1041): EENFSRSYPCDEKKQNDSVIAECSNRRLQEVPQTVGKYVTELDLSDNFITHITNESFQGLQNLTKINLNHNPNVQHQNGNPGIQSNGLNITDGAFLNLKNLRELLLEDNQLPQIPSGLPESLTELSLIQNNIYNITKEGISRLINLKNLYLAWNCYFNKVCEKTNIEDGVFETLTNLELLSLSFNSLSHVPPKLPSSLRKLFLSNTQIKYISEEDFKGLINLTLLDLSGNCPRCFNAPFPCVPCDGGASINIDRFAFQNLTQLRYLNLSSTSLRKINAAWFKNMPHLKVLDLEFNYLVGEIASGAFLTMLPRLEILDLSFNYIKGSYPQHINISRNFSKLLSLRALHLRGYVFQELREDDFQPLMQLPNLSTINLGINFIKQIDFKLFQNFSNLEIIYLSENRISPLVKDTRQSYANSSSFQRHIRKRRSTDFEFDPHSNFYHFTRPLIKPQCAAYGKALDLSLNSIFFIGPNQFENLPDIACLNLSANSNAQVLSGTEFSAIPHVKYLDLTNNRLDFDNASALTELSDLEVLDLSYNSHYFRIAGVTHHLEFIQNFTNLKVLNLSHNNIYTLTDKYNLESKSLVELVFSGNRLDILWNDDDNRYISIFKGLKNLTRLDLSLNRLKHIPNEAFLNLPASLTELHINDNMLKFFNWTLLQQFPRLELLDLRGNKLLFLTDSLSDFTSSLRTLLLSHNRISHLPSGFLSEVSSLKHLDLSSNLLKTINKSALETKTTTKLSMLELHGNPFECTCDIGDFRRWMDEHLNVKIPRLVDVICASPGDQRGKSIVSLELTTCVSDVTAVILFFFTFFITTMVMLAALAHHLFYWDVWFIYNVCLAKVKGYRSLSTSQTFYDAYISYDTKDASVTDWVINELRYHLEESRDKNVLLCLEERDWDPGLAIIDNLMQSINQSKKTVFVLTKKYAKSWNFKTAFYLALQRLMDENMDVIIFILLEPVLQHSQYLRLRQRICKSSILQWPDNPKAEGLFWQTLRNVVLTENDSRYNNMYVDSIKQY
# RUN DESCRIPTION: TLR8 Stimulation determined using HEK-Blue Detection
# ASSAY CONTEXT: HEK-Blue hTLR8 cells, 16 hr, percentages of maximum activation with Resiquimod or Motolimod, Table 3
MEASURED METRIC: EC50

Take a look at these entries with their results.
> print(dat)
                                   compound                               system.name  observed.measurement
1  CCCC(C)Oc1nc(N)c2ncc(Cc3ccc(C4CCNCC4)nc3F)n2n1 (centres unmarked)  human TLR 8 protein (Homo sapiens, UniProt Q9NR97)                169 nM
2  CCC[C@H](C)Nc1nc(N)c2ncc(Cc3cnc(N4CCN(C(=O)CN(C)C)CC4)c(C)c3)n2n1  human TLR 8 protein (Homo sapiens, UniProt Q9NR97)            > 10000 nM
3  CCCC(CCC)Nc1nc(N)c2ncc(Cc3cnc(N4CCC(CN(C)C)CC4)c(C)c3)n2n1  human TLR 8 protein (Homo sapiens, UniProt Q9NR97)            > 10000 nM
4  CCC[C@H](C)Nc1nc(N)c2ncc(Cc3cnc(N4CCC(CN(C)C)CC4)c(C)c3)n2n1 (single isomer, unassigned)  human TLR 8 protein (Homo sapiens, UniProt Q9NR97)            > 10000 nM
5  CCC[C@H](C)Nc1nc(N)c2ncc(Cc3cnc(N4CCN(CCO)CC4)c(C)c3)n2n1  human TLR 8 protein (Homo sapiens, UniProt Q9NR97)            > 10000 nM

(Q) // query EC50 value for entry `CCC[C@H](C)Oc1nc(N)c2ncc(Cc3cnc(N4CCC(N(C)C)CC4)c(C)c3)n2n1`
(A) 262 nM

(Q) # query: EC50 of entry `CCC[C@H](C)Nc1nc(N)c2ncc(Cc3cnc(N4CCN(C(=O)CN(C)CCNC)CC4)c(C)c3)n2n1`
(A) > 10000 nM

(Q) What value of EC50 has been reported for the following compound? CCCC(CC)Oc1nc(N)c2ncc(Cc3cnc(N4CCNCC4)c(C)c3)n2n1 (centres unmarked)
(A) 530 nM
